Listed here: items and their measured cytotoxicity at 70.5 h.
TEST: Human HepG2 cell viability assay in 384 well format
Type: toxicity, cell-based
Design: dose 125 nL, time 70.5 hour; concentration not given beside the values
EXPERIMENTAL PARAMETERS: HepG2 cells, read-out: Inhibition
PROPERTY: cytotoxicity at 70.5 h (%)

>>> reported("Cc1cc(C(=O)Nc2ccc(CN3CCOCC3)cn2)n(C)n1")
-5.67
>>> reported("CCC(C)N(C)S(=O)(=O)c1ccc(CCNC(C)=O)s1 (centres undefined)")
-7
>>> reported("CN(C)CCOCc1nnc2n1CCN(Cc1ccco1)CC2")
-4.62
>>> reported("CC(C)C(=O)N1CCC2(CCN2CC2CC2)C1 (centres undefined)")
-4.62

====

TEST: Human HepG2 cell viability assay in 384 well format
Type: toxicity, cell-based
Set-up: dose 125 nL, time 70.5 hour; concentration not given beside the values
EXPERIMENTAL PARAMETERS: HepG2 cells, read-out: Inhibition
PROPERTY: cytotoxicity at 70.5 h

>>> reported("CC1CC(=O)c2cc(C(=O)N3CCc4ccccc4C3)c(=O)[nH]c2C1 (stereo not drawn)")
"-2.25%"
>>> reported("CCCS(=O)(=O)N1CCc2c(COCC)cncc2C1")
"-3.03%"
>>> reported("CCc1ccc(CN2C[C@@H]3OCCN(c4ccnc(N(C)C)n4)[C@@H]3C2)o1")
"5.59%"

====

TEST: Human HepG2 cell viability assay in 384 well format
Type: toxicity, cell-based
Design: dose 125 nL, time 70.5 hour; concentration not given beside the values
EXPERIMENTAL PARAMETERS: HepG2 cells, read-out: Inhibition
cytotoxicity at 70.5 h by entry:
PROPERTY: cytotoxicity at 70.5 h (%)

>>> reported("O=c1[nH]cc(Nc2ccccc2)c(=O)[nH]1")
35
>>> reported("Cc1nnc2n1CCN(CCS(=O)(=O)c1ccccc1)C2")
-9.06
>>> reported("CN1CC2(CCN(C(=O)Cc3ccccn3)CC2)OCC1=O")
-5.16
>>> reported("CCC(=O)NC1CCN(c2cccc(CC)c2)CC1")
38.9
>>> reported("Cc1nc(NC2CCCC2)c2c(n1)c(C)nn2C")
-14.9
>>> reported("O=C(c1ccc(=O)[nH]c1)N1C[C@@H]2CC[C@H](C1)N(Cc1ccccc1)C2")
-8.28
>>> reported("CC(C)c1noc(CN2CCCN(Cc3cccs3)CC2)n1")
-25.6
>>> reported("O=C1NC2(CCN(Cc3cccnc3)CC2)CC1c1cccnc1 (stereo unspecified)")
-8.55
>>> reported("COc1cccc(CN2C[C@@H]3COC[C@]3(COc3cccnc3)C2)c1")
3.66
>>> reported("COc1nn(C)c2c1CCCN(S(=O)(=O)c1cccc(F)c1)C2")
-4.75
>>> reported("CC(C)(C)NCc1nn(Cc2ccccc2)nc1-c1ccccc1")
5.21

====

TEST: Human HepG2 cell viability assay in 384 well format
Type: toxicity, cell-based
Set-up: dose 125 nL, time 70.5 hour; concentration not given beside the values
EXPERIMENTAL PARAMETERS: HepG2 cells, read-out: Inhibition
PROPERTY: cytotoxicity at 70.5 h (%)

>>> reported("O=C(c1[nH]nc(C2CC2)c1Cl)N1CCN(S(=O)(=O)c2ccccc2)CC1")
18.5
>>> reported("COC(=O)C(CNC(=O)Nc1nncs1)Cc1ccc(F)cc1 (stereo unspecified)")
-4.56
>>> reported("CSCc1cc(C(=O)NC2(C#N)CCSC2)ccc1F (stereo unspecified)")
-8.71
>>> reported("Cc1cccc(CS(=O)(=O)c2nnc(N3CCOCC3)s2)c1")
0.983
>>> reported("CCNC(=O)Nc1ncc(-c2cccnc2)s1")
-6.64
>>> reported("COCCNC(=O)N1CC(Cc2ccccc2F)C1")
-4.03

This collection of values is drawn from ChEMBL document CHEMBL3507680.
